assay: Fluorescent AGEs formation in a BSA-fructose/glucose system; format: biochemical; settings: mean ± SD, n = 3; read-out: BSA-glycation IC50
measured.metric: pIC50
Conceptually, pIC50 converts a concentration in mol/L into minus its log10.

// pIC50 value for C[C@@H]1O[C@@H](OC[C@H]2O[C@@H](Oc3c(-c4ccc(O)c(O)c4)oc4cc(O)cc(O)c4c3=O)[C@H](O)[C@@H](O)[C@@H]2O)[C@H](O)[C@H](O)[C@H]1O [compound 24, Rutin] : 3.65

Short answer for O=c1cc(-c2ccc(O)cc2)oc2c(C3OC(CO)C(O)C(O)C3O)c(O)c(C3OCC(O)C(O)C3O)c(O)c12 (stereo not shown) [compound 14, Vicenin-1] : pIC50 was 3.59

// pIC50 lookup, molecule = O=C(O)CC(=O)OCC1OC(Oc2c(-c3ccc(O)c(O)c3)oc3cc(O)cc(O)c3c2=O)C(O)C(O)C1O (stereo not shown) [compound 27, Quercetin 3-O-(6″-malonyl-glucoside)] , result: 3.54

For record O=c1cc(-c2ccc(O)c(O)c2)oc2c(C3OCC(O)C(O)C3O)c(O)c(C3OC(CO)C(O)C(O)C3O)c(O)c12 (stereo not shown) [compound 15] the listed pIC50 is 3.53

Lab note: measured pIC50 of O=c1cc(-c2ccc(O)cc2)oc2c(C3OCC(O)C(O)C3O)c(O)c(C3OC(CO)C(O)C(O)C3O)c(O)c12 (stereo not shown) [compound 17, Schaftoside] was 3.60

The recorded pIC50 for COc1cc(-c2oc3cc(O)cc(O)c3c(=O)c2OC2OC(CO)C(O)C(O)C2O)ccc1O (stereo not shown) [compound 32, Isorhamnetin-3-O-glucoside] is 3.68

Record O=c1cc(-c2ccc(O)cc2)oc2c(C3OC(CO)C(O)C(O)C3O)c(O)c(C3OC(CO)C(O)C(O)C3O)c(O)c12 (stereo not shown) [compound 10, Vicenin-2] . Reported pIC50: 3.59

The molecule listed as Cl.N=C(N)NN [AG, Aminoguanidine hydrochloride, reference compound] shows pIC50 equal to 2.79

# pIC50 of O=c1cc(-c2ccc(O)c(O)c2)oc2cc(O)c(C3OC(CO)C(O)C(O)C3O)c(O)c12 [compound 18, Luteolin-6-C-β-D-glucoside] = 3.50

GET /value?item= O=c1c(O[C@@H]2O[C@H](CO)[C@@H](O)[C@H](O)[C@H]2O)c(-c2ccc(O)c(O)c2)oc2cc(O)cc(O)c12 [compound 25, Isoquercitrin] &field=pIC50 returns 3.67

Query O=c1cc(-c2ccc(O)cc2)oc2c(C3OCC(O)C(O)C3O)c(O)c(C3OCC(O)C(O)C3O)c(O)c12 (stereo not shown) [compound 26] yields pIC50 of 3.56

// O=c1c(O[C@@H]2O[C@H](CO)[C@@H](O)[C@H](O)[C@H]2O)c(-c2ccc(O)cc2)oc2cc(O)cc(O)c12 [compound 31, Astragalin] : pIC50 value = 3.56

Entry O=c1c(OC2OC(CO)C(O)C(O)C2OC2OC(CO)C(O)C(O)C2O)c(-c2ccc(O)c(O)c2)oc2cc(O)cc(O)c12 (stereo not shown) [compound 16, Quercetin-3-O-sophoroside] ; pIC50 = 3.53
